- Test system: MIA PaCa-2
- Assay protocol: cells
- Applied conditions: Homo sapiens, MIA PaCa-2, 72 h
pIC50: −log10 of the molar value.
Reported property: pIC50

Examples from the recorded data:
CCN(CC)CCCC(C)Nc1cnc(C(=O)Nc2cc(C)c(Cl)c3cccnc23)cn1 (stereo not drawn) ... 5.49
CCN(CC)CCCC(C)Nc1cnc(C(=O)Nc2cccc3ccc(Cl)nc23)cn1 (stereo not drawn) ... 5.31
CCN(CC)CCCC(C)Nc1cnc(C(=O)Nc2cccc3ccc(C)nc23)cn1 (stereo not drawn) ... 5.00
CCN(CC)CCCC(C)Nc1nc(C(=O)Nc2cc(F)cc3cccnc23)cs1 (stereo not drawn) ... 5.82
CCN(CC)CCCC(C)Nc1cnc(C(=O)Nc2cc(OC)cc3cccnc23)cn1 (stereo not drawn) ... 5.64

1. CCN(CC)CCCC(C)Nc1cnc(C(=O)Nc2cc(C(F)(F)F)cc3cccnc23)cn1 (stereo not drawn)
2. CCN(CC)CCCC(C)Nc1cnc(C(=O)Nc2cc(C#N)cc3cccnc23)cn1 (stereo not drawn)
Task: Rank 1 against 2 by their pIC50 values and give the higher one. Reply with the label of the item you choose.
Result: 1
(1: 5.31, 2: 5.00)
